# Test system: P116.c139 cells
# Assay Summary: Cell cytotoxicity assay (CellTiter-Glo)
# Assay type: cell-based
# Measurement Conditions: 48 hours; read-out: IC50 after 48 hours of treatment, P116.c139
pIC50: −log10 of the molar value.
Reported Property: pIC50

Identify measured pIC50 associated with CC(=O)C1=C(O)C=C2Oc3c(C(N)=O)c(O)cc(O)c3[C@]2(C)C1=O [Cercosporamide, reference compound]
< 4.30

* * *

Kindly state IC50 for each of the entries shown.
# System Tested: MNK1 (Homo sapiens)
# Assay Summary: In vitro MNK kinase assay (Caliper LabChip mobility shift)
# Format: biochemical
# Measurement Conditions: enzymatic, 1.2 mM ATP; read-out: IC50 Mnk1
Counter-ions that a name gives are not always drawn.

Identify measured IC50 associated with "N#Cc1ccc(-c2cnc3ccc(-c4ccc(C(=O)NCC(=O)N5CCOCC5)cc4)cn23)cc1"
< 1000 nM

Identify measured IC50 associated with "NC(=O)c1ccc(-c2cn3c(-c4ccc(Cl)cc4)cnc3cn2)cc1"
< 1000 nM

Identify measured IC50 associated with "N#Cc1ccc(-c2cnc3ccc(-c4ccc(C(=O)N5CCC(O)CC5)cc4)nn23)cc1"
< 100 nM

Identify measured IC50 associated with "CNC1CCN(C(=O)c2ccc(-c3cn4c(-c5ccc(C#N)cc5)cnc4cn3)cc2)CC1"
< 1000 nM

Identify measured IC50 associated with "N#Cc1ccc(-c2cnc3ccc(-c4ccc(C(=O)N5CCC(N)CC5)cc4)cn23)cc1"
< 100 nM

Identify measured IC50 associated with "N#Cc1ccc(-c2cnc3ccc(-c4ccc(C(=O)N5CCCOCC5)cc4)cn23)cc1"
< 100 nM

Identify measured IC50 associated with NC(=O)c1ccc(-c2cnc3cnc(-c4ccc(C(=O)N5CCC(N)CC5)cc4)cn23)cc1 [Example 4, hydrochloride]
< 100 nM

Identify measured IC50 associated with "CN1CCN(C(=O)c2ccc(-c3ccc4ncc(-c5ccc(C#N)cc5)n4c3)c(Cl)c2)CC1"
< 1000 nM

Identify measured IC50 associated with "CNc1cc(-c2ccc3ncc(-c4ccc(C#N)cc4)n3c2)ccc1C(=O)N1CCOCC1"
< 1000 nM

Identify measured IC50 associated with "CN1CCN(C2CCN(C(=O)c3ccc(-c4ccn5ncc(-c6ccc(C#N)cc6)c5n4)cc3)CC2)CC1"
< 100 nM

Identify measured IC50 associated with "CN1CCN(C(=O)c2ccc(-c3ccc4ncc(-c5ccc(C#N)cc5)n4n3)cc2F)CC1"
< 100 nM

Identify measured IC50 associated with "CN(C)C1CCN(C(=O)c2ccc(-c3ccc4ncc(-c5ccc(C#N)cc5)n4n3)cc2)CC1"
< 100 nM

Identify measured IC50 associated with "CN(C)C1CCN(C(=O)c2ccc(-c3cn4c(-c5ccc(C#N)cc5)cnc4cn3)cc2)CC1"
< 1000 nM

Identify measured IC50 associated with "CN1CCN(C(=O)c2ccc(-c3ccc4ncc(-c5ccc(C#N)cc5)n4c3)cc2N(C)C)CC1"
< 100 nM

Identify measured IC50 associated with "N#Cc1ccc(-c2cnn3ccc(-c4ccc(C(=O)N5CCOCC5)cc4)nc23)cc1"
< 100 nM

Identify measured IC50 associated with "CC1(N)CCN(C(=O)c2ccc(-c3ccc4ncc(-c5ccc(Cl)cc5)n4c3)cc2)CC1"
< 100 nM

* * *

# System: eIF4E Ser209 phosphorylation in Hela cells
# Assay Summary: MNK cell-based assay, AlphaScreen SureFire
# Measurement Conditions: 2 hours
Reported Property: IC50

// fetch IC50; item: "N#Cc1ccc(-c2cnc3ccc(-c4ccc(C(=O)N5CCN(c6ccncc6)CC5)cc4)cn23)cc1" ; system: eIF4E Ser209 phosphorylation in Hela cells
< 1 µM

All figures here come from patent US9908886B2.
